Values compiled from PubChem BioAssay AID278.

- System: nude mice, A549 intrarenal xenograft, tumor weight change
- assay-remarks: NCI In Vivo Anticancer Drug Screen. Data for tumor model A549 Human Adenocarcinoma of Lung with characteristics of Type II Alveolar Epithelial cells (intrarenal inoculation) in NU/NU BALB/C (nude) mice
- particulars: endpoint: mean tumor weight change; dose: 37.5 mg/kg/injection; schedule: Q04DX003 (ip); vehicle: saline with Tween-80; higher = larger tumour
Results filed as inconclusive are left out.
Each entry below lists one item and its recorded T/C value.

Any idea what T/C was measured for CCCC1CCC(=C2C(=O)CCC2=O)O1 (stereo unspecified) ?
247 % of control

Any idea what T/C was measured for `O=C1CN(CCN2CC(=O)N(CN3CCOCC3)C(=O)C2)CC(=O)N1CN1CCOCC1` ?
51 % of control

Any idea what T/C was measured for `c1ccc([Te][Te]c2ccccc2)cc1` ?
122 % of control

Any idea what T/C was measured for `Nc1ccn([C@@H](C=O)C[C@@H](C=O)CO)c(=O)n1` ?
42 % of control

Any idea what T/C was measured for `Cc1c2ccccc2c(C)c2c1cc(C(=O)O)c1ccccc12` ?
150 % of control

Any idea what T/C was measured for `COc1ccc(C[C@@H]2NC[C@@H](O)[C@@H]2OC(C)=O)cc1` ?
87 % of control

----------
- System: nude mice, A549 intrarenal xenograft, tumor weight change
- assay-remarks: NCI In Vivo Anticancer Drug Screen. Data for tumor model A549 Human Adenocarcinoma of Lung with characteristics of Type II Alveolar Epithelial cells (intrarenal inoculation) in NU/NU BALB/C (nude) mice
- particulars: endpoint: mean tumor weight change; dose: 400.0 mg/kg/injection; schedule: Q04DX003 (ip); vehicle: saline with Tween-80; higher = larger tumour
Records with an inconclusive call do not appear.
Each entry below lists one item and its recorded T/C value.

Quick check: T/C on nude mice, A549 intrarenal xenograft, tumor weight change, item `Nc1ccc2ccc(N)cc2c1` ?
55 % of control

Quick check: T/C on nude mice, A549 intrarenal xenograft, tumor weight change, item `CCCCOCN(COCCCC)C12CC3CC(CC(C3)C1)C2` ?
203 % of control

Quick check: T/C on nude mice, A549 intrarenal xenograft, tumor weight change, item `NC(=S)N/N=C/c1ccc(O)cn1` ?
53 % of control

Quick check: T/C on nude mice, A549 intrarenal xenograft, tumor weight change, item `COc1ccc2oc3c(ccc[n+]3C)c(=O)c2c1` ?
32 % of control

----------
- Test system: nude mice, A549 intrarenal xenograft, tumor weight change
- assay-remarks: NCI In Vivo Anticancer Drug Screen. Data for tumor model A549 Human Adenocarcinoma of Lung with characteristics of Type II Alveolar Epithelial cells (intrarenal inoculation) in NU/NU BALB/C (nude) mice
- particulars: endpoint: mean tumor weight change; dose: 600.0 mg/kg/injection; schedule: Q04DX003 (ip); vehicle: saline with Tween-80; higher = larger tumour
Results filed as inconclusive are left out.
readout-type: T/C

mol=S=c1sc2ccccc2n1CN1CCOCC1 result="57 % of control"
mol=S=C(NCNC(=S)c1ccncc1)c1ccncc1 result="317 % of control"

Any idea what T/C was measured for `CC(C)(C)c1ccc(C(=O)N2CCOC23CCCCC3)cc1` ?
63 % of control

----------
- System: nude mice, A549 intrarenal xenograft, tumor weight change
- assay-remarks: NCI In Vivo Anticancer Drug Screen. Data for tumor model A549 Human Adenocarcinoma of Lung with characteristics of Type II Alveolar Epithelial cells (intrarenal inoculation) in NU/NU BALB/C (nude) mice
- particulars: endpoint: mean tumor weight change; dose: 12.5 mg/kg/injection; schedule: Q04DX003 (ip); vehicle: saline with Tween-80; higher = larger tumour
Records with an inconclusive call do not appear.
readout-type: T/C

compound=O=[N+]([O-])c1ccc(N(CCO)CCO)c2c1no[n+]2[O-] result="53 % of control"
compound="CCC(NC(N)=O)C(CC)NC(N)=O (centres undefined)" result="120 % of control"
compound="COc1ccc(C(C)c2cc3c(cc2OC)OCO3)cc1 (centres undefined)" result="17 % of control"

Any idea what T/C was measured for `S=C(N/N=C1/CCCC/C1=N/NC(=S)N1CCOCC1)N1CCOCC1` ?
27 % of control

Any idea what T/C was measured for `CC(=O)C[n+]1ccccc1Sc1ccc(Cl)cc1` ?
107 % of control

Any idea what T/C was measured for `C[n+]1c(-c2ccc(NC(=O)c3ccc(C(=O)Nc4ccc(-c5cn6ccccc6[n+]5C)cc4)cc3)cc2)cn2ccccc21` ?
47 % of control

Any idea what T/C was measured for `CCOC(=O)/N=[N+](\[O-])c1ccccc1` ?
156 % of control

Any idea what T/C was measured for `C/C(=N\NC(=S)N1CC2CCC(CC2)C1)c1cccc(C)n1` ?
114 % of control

Any idea what T/C was measured for `C/C(=N\NC(=S)N1CC2CCC(CC2)C1)c1nccs1` ?
62 % of control
